Please respond with reported viability, T/C for every item in the list.
- Tested on: 299254-011-R-J1-PDC complex spheroid viability
- Assay name: Anticancer human tumor 299254-011-R-J1-PDC patient-derived melanoma cell line growth inhibition [POLQ]
- Experimental conditions: second compound 0.1 µM; first compound 1 µM; stronger effect = lower value

Solved entries:
compound="CNCc1ccc(-c2[nH]c3cc(F)cc4c3c2CCNC4=O)cc1 + Cc1cccc(N(C)C(=O)C2C(O)CCN2c2nc(C)cc(C(F)(F)F)c2C#N)c1" obs_value=112%
compound="O=C(c1cc(Cc2n[nH]c(=O)c3ccccc23)ccc1F)N1CCN(C(=O)C2CC2)CC1 + Nc1ccc(C#CCN(C(=O)Cc2ncc(C(F)(F)F)cc2C(F)(F)F)c2ccc(F)cc2)nn1" obs_value=95.3%

Could you now look at the following compound, please?
Any idea what its viability, T/C is? The compound is CCc1cc2c(N3CCc4c(cc(Cn5ccnc5)cc4-c4cn(C)nc4C(F)(F)F)C3=O)ccnc2c(OC)n1 + Nc1ccc(C#CCN(C(=O)Cc2ncc(C(F)(F)F)cc2C(F)(F)F)c2ccc(F)cc2)nn1
99.2%

* * *

- Tested on: 299254-011-R-J1-PDC complex spheroid viability
- Assay name: Anticancer human tumor 299254-011-R-J1-PDC cell line growth inhibition [POLQ];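 note: spheroids exposed to drugs for one week before measurement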;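 for viability, T/C: percent viability relative to DMSO vehicle control taken as 100%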
- Experimental conditions: second compound 0.1 µM; first compound 1 µM; stronger effect = lower value
Kindly state viability, T/C for each of the entries shown.
Numbers only, in %.

Hey, quick one: what's viability, T/C for each of these?
1. C#Cc1c(F)ccc2cc(O)cc(-c3ncc4c(N5CC6CCC(C5)N6)nc(OCC56CCCN5CC(F)C6)nc4c3F)c12 (stereo not given) + Cc1cccc(N(C)C(=O)C2C(O)CCN2c2nc(C)cc(C(F)(F)F)c2C#N)c1
2. CC1COCCN1c1cc(-c2ccnn2C)c2ccnc(-c3ccn[nH]3)c2n1 (stereo not given) + Nc1ccc(C#CCN(C(=O)Cc2ncc(C(F)(F)F)cc2C(F)(F)F)c2ccc(F)cc2)nn1
3. CC1COCCN1c1cc(C2(S(C)(=N)=O)CC2)nc(-c2ccnc3[nH]ccc23)n1 (stereo not given) + Nc1ccc(C#CCN(C(=O)Cc2ncc(C(F)(F)F)cc2C(F)(F)F)c2ccc(F)cc2)nn1
4. C#Cc1c(F)ccc2cc(O)cc(-c3ncc4c(N5CC6CCC(C5)N6)nc(OCC56CCCN5CC(F)C6)nc4c3F)c12 (stereo not given) + Nc1ccc(C#CCN(C(=O)Cc2ncc(C(F)(F)F)cc2C(F)(F)F)c2ccc(F)cc2)nn1
5. Nc1ccn(C2OC(CO)C(O)C2(F)F)c(=O)n1 (stereo not given) + Cc1cccc(N(C)C(=O)C2C(O)CCN2c2nc(C)cc(C(F)(F)F)c2C#N)c1

[125, 27.8, 83.8, 104, 38]

* * *

- System: 299254-011-R-J1-PDC complex spheroid viability
- Assay name: Anticancer human tumor 299254-011-R-J1-PDC cell line growth inhibition [POLQ];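 note: spheroids exposed to drugs for one week before measurement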;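 for viability, T/C: percent viability relative to DMSO vehicle control taken as 100%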
- Experimental conditions: second compound 0.316 µM; first compound 10 µM; stronger effect = lower value
Each record is given fulfilled if its reported viability, T/C is strictly below 80%. Records at or above 80% are given not fulfilled.

Field: example entries. Status: answers known.
molecule="CC1COCCN1c1cc(-c2ccnn2C)c2ccnc(-c3ccn[nH]3)c2n1 (stereo not given) + COC1C(OC(N)=O)C(O)C(Oc2ccc3c(O)c(NC(=O)c4ccc(O)c(CC=C(C)C)c4)c(=O)oc3c2C)OC1(C)C" assigned_class=fulfilled
molecule="CC(C)n1c(=O)n(C)c2cnc3cc(F)c(-c4ccc(OCCCN5CCCCC5)nc4)cc3c21 + Nc1ccc(C#CCN(C(=O)Cc2ncc(C(F)(F)F)cc2C(F)(F)F)c2ccc(F)cc2)nn1" assigned_class="not fulfilled"
molecule="CC1COCCN1c1cc(-c2ccnn2C)c2ccnc(-c3ccn[nH]3)c2n1 (stereo not given) + Nc1ccc(C#CCN(C(=O)Cc2ncc(C(F)(F)F)cc2C(F)(F)F)c2ccc(F)cc2)nn1" assigned_class=fulfilled

Read the next record carefully.
Below 80% on viability, T/C? Entry COc1cccc2c1C(=O)c1c(O)c3c(c(O)c1C2=O)CC(O)(C(=O)CO)CC3OC1CC(N)C(O)C(C)O1 (stereo not given) + Cc1cccc(N(C)C(=O)C2C(O)CCN2c2nc(C)cc(C(F)(F)F)c2C#N)c1
fulfilled

* * *

- System: 299254-011-R-J1-PDC complex spheroid viability
- Assay name: Anticancer human tumor 299254-011-R-J1-PDC cell line growth inhibition [POLQ];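 note: spheroids exposed to drugs for one week before measurement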
- Experimental conditions: curve of first compound; second compound 1 µM
pIC50: −log10 of the molar value.
Measurement type: pIC50

Previously resolved entries follow.
molecule="O=c1[nH]cc(F)c(=O)[nH]1 + COC1C(OC(N)=O)C(O)C(Oc2ccc3c(O)c(NC(=O)c4ccc(O)c(CC=C(C)C)c4)c(=O)oc3c2C)OC1(C)C" obs_value="< 5.00"
molecule="CCCS(=O)(=O)Nc1ccc(F)c(C(=O)c2c[nH]c3ncc(-c4ccc(Cl)cc4)cc23)c1F + COC1C(OC(N)=O)C(O)C(Oc2ccc3c(O)c(NC(=O)c4ccc(O)c(CC=C(C)C)c4)c(=O)oc3c2C)OC1(C)C" obs_value="< 5.00"
molecule="O=C(Nc1ccc(O)c(NS(=O)(=O)c2ccc(F)cc2)c1)c1ccc(-c2ccccc2)cc1 + COC1C(OC(N)=O)C(O)C(Oc2ccc3c(O)c(NC(=O)c4ccc(O)c(CC=C(C)C)c4)c(=O)oc3c2C)OC1(C)C" obs_value="< 5.00"

# return pIC50 for each item in the list
1. C=CC(=O)N1CCN(c2nc(=O)n(-c3c(C)ccnc3C(C)C)c3nc(-c4c(O)cccc4F)c(F)cc23)C(C)C1 (stereo not given) + Nc1ccc(C#CCN(C(=O)Cc2ncc(C(F)(F)F)cc2C(F)(F)F)c2ccc(F)cc2)nn1
2. CC1COCCN1c1cc(C2(O)CC3CCC(C2)O3)c2cnn(-c3ccn[nH]3)c2n1 (stereo not given) + Nc1ccc(C#CCN(C(=O)Cc2ncc(C(F)(F)F)cc2C(F)(F)F)c2ccc(F)cc2)nn1

1. < 5.00
2. 6.86

* * *

- System: 299254-011-R-J1-PDC complex spheroid viability
- Assay name: Anticancer human tumor 299254-011-R-J1-PDC cell line growth inhibition [POLQ];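 note: spheroids exposed to drugs for one week before measurement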;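 for viability, T/C: percent viability relative to DMSO vehicle control taken as 100%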
- Experimental conditions: second compound 3.16 µM; first compound 0.01 µM; stronger effect = lower value
Please go through the items and note down their viability, T/C.
Numbers only, in %.

Recorded viability, T/C, per entry:
compound="COc1cccc(OCCCN)c1-c1cc(Nc2cnc(C#N)cn2)n[nH]1 + Nc1ccc(C#CCN(C(=O)Cc2ncc(C(F)(F)F)cc2C(F)(F)F)c2ccc(F)cc2)nn1" study_target="299254-011-R-J1-PDC complex spheroid viability" measurement_type="viability, T/C" unit_label=% obs_value=79.6
compound="Cn1ncnc1[C@H]1c2n[nH]c(=O)c3cc(F)cc(c23)N[C@@H]1c1ccc(F)cc1 + COC1C(OC(N)=O)C(O)C(Oc2ccc3c(O)c(NC(=O)c4ccc(O)c(CC=C(C)C)c4)c(=O)oc3c2C)OC1(C)C" study_target="299254-011-R-J1-PDC complex spheroid viability" measurement_type="viability, T/C" unit_label=% obs_value=93.2
compound="CC[C@@]1(O)C(=O)OCc2c1cc1n(c2=O)Cc2cc3c(CN(C)C)c(O)ccc3nc2-1 + COC1C(OC(N)=O)C(O)C(Oc2ccc3c(O)c(NC(=O)c4ccc(O)c(CC=C(C)C)c4)c(=O)oc3c2C)OC1(C)C" study_target="299254-011-R-J1-PDC complex spheroid viability" measurement_type="viability, T/C" unit_label=% obs_value=105
compound="Cn1ncnc1[C@H]1c2n[nH]c(=O)c3cc(F)cc(c23)N[C@@H]1c1ccc(F)cc1 + Cc1cccc(N(C)C(=O)C2C(O)CCN2c2nc(C)cc(C(F)(F)F)c2C#N)c1" study_target="299254-011-R-J1-PDC complex spheroid viability" measurement_type="viability, T/C" unit_label=% obs_value=111

// input: 7 compounds below; output: viability, T/C for each
1. CC[C@@]1(O)C(=O)OCc2c1cc1n(c2=O)Cc2cc3c(CN(C)C)c(O)ccc3nc2-1 + Nc1ccc(C#CCN(C(=O)Cc2ncc(C(F)(F)F)cc2C(F)(F)F)c2ccc(F)cc2)nn1
2. C=CCn1c(=O)c2cnc(Nc3ccc(N4CCN(C)CC4)cc3)nc2n1-c1cccc(C(C)(C)O)n1 + Cc1cccc(N(C)C(=O)C2C(O)CCN2c2nc(C)cc(C(F)(F)F)c2C#N)c1
3. Cn1ncnc1[C@H]1c2n[nH]c(=O)c3cc(F)cc(c23)N[C@@H]1c1ccc(F)cc1 + Nc1ccc(C#CCN(C(=O)Cc2ncc(C(F)(F)F)cc2C(F)(F)F)c2ccc(F)cc2)nn1
4. COc1cccc(OCCCN)c1-c1cc(Nc2cnc(C#N)cn2)n[nH]1 + Cc1cccc(N(C)C(=O)C2C(O)CCN2c2nc(C)cc(C(F)(F)F)c2C#N)c1
5. COc1cccc(OCCCN)c1-c1cc(Nc2cnc(C#N)cn2)n[nH]1 + COC1C(OC(N)=O)C(O)C(Oc2ccc3c(O)c(NC(=O)c4ccc(O)c(CC=C(C)C)c4)c(=O)oc3c2C)OC1(C)C
6. C=CCn1c(=O)c2cnc(Nc3ccc(N4CCN(C)CC4)cc3)nc2n1-c1cccc(C(C)(C)O)n1 + COC1C(OC(N)=O)C(O)C(Oc2ccc3c(O)c(NC(=O)c4ccc(O)c(CC=C(C)C)c4)c(=O)oc3c2C)OC1(C)C
7. CCc1c2c(nc3ccc(O)cc13)-c1cc3c(c(=O)n1C2)COC(=O)[C@]3(O)CC + Nc1ccc(C#CCN(C(=O)Cc2ncc(C(F)(F)F)cc2C(F)(F)F)c2ccc(F)cc2)nn1

96.9
102
105
107
105
103
84.1
